tested target: T1, full-length human CD86 on HEK293 cells (human, UniProt P42081 24-329)
T1 sequence: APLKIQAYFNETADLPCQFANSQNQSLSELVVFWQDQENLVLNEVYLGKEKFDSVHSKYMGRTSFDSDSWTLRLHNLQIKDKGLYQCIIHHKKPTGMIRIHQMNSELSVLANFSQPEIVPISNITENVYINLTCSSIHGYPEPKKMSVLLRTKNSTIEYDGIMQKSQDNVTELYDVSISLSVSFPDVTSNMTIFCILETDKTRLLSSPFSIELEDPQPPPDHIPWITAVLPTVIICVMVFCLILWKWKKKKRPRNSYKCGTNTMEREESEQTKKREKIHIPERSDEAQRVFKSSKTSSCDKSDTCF
protocol notes: cell-based or functional assay
Listing of recorded Mean IC50 (nM), CD4+ T cell proliferation by entry.
Just the number please, in nM, no unit attached.

binder: D3-73-IgG2 (Fc fusion) MHVAQPAVVLASSRGIASFVCEYESPGKANEVRVTVLRQADSQVTEVCAMTYMKGNELTFLDDPICTGTFSGNQVNLTIQGLRAMDTGLYICKVELMYPPPYYEGIGNGTQIYVIDPEPCPDSDERKCCVECPPCPAPPVAGPSVFLFPPKPKDTLMISRTPEVTCVVVDVSHEDPEVQFNWYVDGVEVHNAKTKPREEQFNSTFRVVSVLTVVHQDWLNGKEYKCKVSNKGLPAPIEKTISKTKGQPREPQVYTLPPSREEMTKNQVSLTCLVKGFYPSDIAVEWESNGQPENNYKTTPPMLDSDGSFFLYSKLTVDKSRWQQGNVFSCSVMHEALHNHYTQKSLSLSPG
unit name: nM
value measured: 0.06
--
binder: D3-34-IgG2 (Fc fusion) MHVAQPAVVLASSRGIASFVCEYASPGKANEVRVTVLRQADSQVTEVCAMTYMKGNELTFLDDPSCTGTFSGNQVNLTIQGLRAMDTGLYICKVELMYPPPYYLGIGNGTQIYVIDPEPCPDSDERKCCVECPPCPAPPVAGPSVFLFPPKPKDTLMISRTPEVTCVVVDVSHEDPEVQFNWYVDGVEVHNAKTKPREEQFNSTFRVVSVLTVVHQDWLNGKEYKCKVSNKGLPAPIEKTISKTKGQPREPQVYTLPPSREEMTKNQVSLTCLVKGFYPSDIAVEWESNGQPENNYKTTPPMLDSDGSFFLYSKLTVDKSRWQQGNVFSCSVMHEALHNHYTQKSLSLSPG
unit name: nM
value measured: 0.05
--
binder: D3-14-IgG2 (Fc fusion) MHVAQPAVVLASSRGIASFVCEYESPGKANEIRVTVLRQADSQVTEVCAMTYMKGDELTFLDDPSCTGTFSGNQVNLTIQGLRAADTGLYICKVELMYPPPYYLGIGNGTQIYVIDPEPCPDSDERKCCVECPPCPAPPVAGPSVFLFPPKPKDTLMISRTPEVTCVVVDVSHEDPEVQFNWYVDGVEVHNAKTKPREEQFNSTFRVVSVLTVVHQDWLNGKEYKCKVSNKGLPAPIEKTISKTKGQPREPQVYTLPPSREEMTKNQVSLTCLVKGFYPSDIAVEWESNGQPENNYKTTPPMLDSDGSFFLYSKLTVDKSRWQQGNVFSCSVMHEALHNHYTQKSLSLSPG
unit name: nM
value measured: 0.04

Notebook: D2-IgG2 (Fc fusion) MHVAQPAVVLASSRGIASFVCEYESPHKANEIRVTVLRQANSQVTEVCAMTYMKGDELTFLDDPFCTGTFSGNQVNLTIQGLRAADTGLYICKVELMYPPPYYLGMGNGTQIYVIDPEPCPDSDERKCCVECPPCPAPPVAGPSVFLFPPKPKDTLMISRTPEVTCVVVDVSHEDPEVQFNWYVDGVEVHNAKTKPREEQFNSTFRVVSVLTVVHQDWLNGKEYKCKVSNKGLPAPIEKTISKTKGQPREPQVYTLPPSREEMTKNQVSLTCLVKGFYPSDIAVEWESNGQPENNYKTTPPMLDSDGSFFLYSKLTVDKSRWQQGNVFSCSVMHEALHNHYTQKSLSLSPG , Mean IC50 (nM), CD4+ T cell proliferation read as 0.03

From: patent US20110177071A1
